Assay: Blood biochemistry
Format: in vivo, mice
Settings: serum, day 38
Method: Following the animal experiments described above, the mice were sacrificed on the 38th day and serum was collected by centrifuging the whole blood at 5,000 rpm for 15 min. The biochemical parameters were assayed by UCLA Division of Laboratory Animal Medicine (DLAM) diagnostic laboratory services.
QUANTITY_MEASURED: PHOS (mg/dL)
Provide the reading as a plain figure in mg/dL.

stdin: Endpoint output: PHOS of Nc1ccn([C@@H]2O[C@H](CO)[C@@H](O)C2(F)F)c(=O)n1 [Free GEM, gemcitabine] . Value?
stdout: 6.1

----------
test: Blood biochemistry; assay type: in vivo, mice; conditions: serum, day 38
QUANTITY_MEASURED: AST (U/L)
Your answer is read as U/L, so omit the unit and give the number.

stdin: Query: AST; subject: Nc1ccn([C@@H]2O[C@H](CO)[C@@H](O)C2(F)F)c(=O)n1 [Free GEM, gemcitabine]
stdout: 222

----------
assay: Blood biochemistry; assay type: in vivo, mice; details: serum, day 38, BUN-to-creatinine ratio
QUANTITY_MEASURED: BUN CR
Respond numerically, and do not add a unit to the figure.

stdin: # lookup: BUN CR of Nc1ccn([C@@H]2O[C@H](CO)[C@@H](O)C2(F)F)c(=O)n1 [Free GEM, gemcitabine]
stdout: 191
